# System: OE21
# Experiment Description: cells
# Parameters: species or system panel of human cancer cell lines; Eurofins OncoPanel proliferation; nuclei count by high-content fluorescence imaging, 10-point dose response
# Reported Conditions: OE21, 72 h; cell count, 50% of maximum possible response, 3 days
# Description: OncoPanel cancer cell proliferation assay was performed by Eurofins Panlabs, Inc. (Missouri, USA). Cancer cells were grown in RPMI 1640, 10% FBS, 2 mM L-alanyl-L-glutamine, 1 mM Na pyruvate, or a special medium. […] After a 3-day incubation period, cells were fixed and stained to allow fluorescence imaging of nuclei. […] Automated fluorescence microscopy was carried out using a Molecular Devices ImageXpress Micro XL high-content imager, and images were collected with a 4X objective. […]
Measured Quantity: IC50 (µM)

# Molecular String, Recorded Measurement
rows = [
    ("C[C@@H]1CC(=O)NN=C1c1ccc(NN=C(C#N)C#N)cc1", 85.5),
]
